measuredOn: PRMT5 (Homo sapiens)
Construct: purchased Viva (custom protein)
assayNotes: PRMT5 IC50 assay with no cofactor
Format: biochemical
experimentalSetup: read-out: No Co-factor IC50
pIC50: −log10 of the molar value.
Would you mind telling me the reported pIC50 of each entry?

### Prompt Lab note: need pIC50 for Cc1ncoc1COc1ccc2c(c1)CCN(C[C@@H](O)CNC(=O)c1cc(NC3CCC3)nc(N3CCOCC3)c1)C2 on PRMT5 (Homo sapiens), anyone have it?
### Response 5.30 to 6.30

### Prompt Give pIC50 (PRMT5 (Homo sapiens)) of the following compound: CC(=O)N1CC(Nc2cc(C(=O)NC[C@H](O)CN3CCc4c(ccc(OCc5cnco5)c4Cl)C3)nc(C(C)(C)C)n2)C1
### Response 5.30 to 6.30

### Prompt Look up pIC50 with PRMT5 (Homo sapiens) for this compound: Cc1ncoc1COc1ccc2c(c1)CCN(C[C@@H](O)CNC(=O)c1cccc(NC3COC3)c1)C2
### Response ≤ 5.30

### Prompt Provide value of pIC50 for this record tested with PRMT5 (Homo sapiens): O=C(NC[C@H](O)CN1CCc2c(ccc(OCc3cnco3)c2Cl)C1)c1cccc(NC2CCC2)c1
### Response ≤ 5.30

### Prompt What pIC50 appears in the records for this compound with PRMT5 (Homo sapiens)? O=C(NC[C@H](O)CN1CCc2cc(OCc3cnco3)ccc2C1)c1ccnc(Nc2cccnc2)c1
### Response ≤ 5.30

### Prompt // lookup pIC50 | system=PRMT5 (Homo sapiens) | key= O=C(NC[C@H](O)CN1CCc2c(ccc(OCc3cnco3)c2Br)C1)c1cc(NC2CCC2)ncn1
### Response ≤ 5.30

### Prompt Requested read-out pIC50, target or system PRMT5 (Homo sapiens), entry Cc1ncoc1COc1ccc2c(c1C)CCN(C[C@@H](O)CNC(=O)c1ccnc(NC3CCC3)c1)C2
### Response ≤ 5.30

### Prompt Recall the recorded pIC50 for Cc1c(OCc2ccnn2C)ccc2c1CCN(C[C@@H](O)CNC(=O)c1ccnc(NC3CCCCC3)c1)C2 with PRMT5 (Homo sapiens) and state it.
### Response ≤ 5.30

### Prompt What is its pIC50 for PRMT5 (Homo sapiens)? Entry: Cc1ncoc1COc1ccc2c(c1C)CCN(C[C@@H](O)CNC(=O)c1cc(NC3CCC3)ncn1)C2
### Response ≤ 5.30

### Prompt Please state recorded pIC50 (tested on PRMT5 (Homo sapiens)) of O=C(NC[C@H](O)CN1CCc2c(ccc(OCc3cnco3)c2Cl)C1)c1ccnc(NC2CCC2)c1
### Response ≤ 5.30

### Prompt Give PRMT5 (Homo sapiens) pIC50 for CC(=O)N1CCC(Nc2cc(C(=O)NC[C@H](O)CN3CCc4cc(OCc5ocnc5C)ccc4C3)cc(N(C)C)n2)CC1
### Response 5.30 to 6.30

### Prompt API: value(readout= pIC50, system= PRMT5 (Homo sapiens), query= O=C(NC[C@H](O)CN1CCc2c(ccc(OCc3cnn[nH]3)c2Cl)C1)c1ccnc(NC2CCC2)c1 )
### Response ≤ 5.30

### Prompt API: value(readout=pIC50, system=PRMT5 (Homo sapiens)) for record O=C(NC[C@H](O)CN1CCc2c(ccc(OCc3cnco3)c2Br)C1)c1ccnc(NC2CCC2)c1
### Response ≤ 5.30

### Prompt Return pIC50 measured with PRMT5 (Homo sapiens) given this compound: CCN(C)c1nc(NC2COC2)cc(C(=O)NC[C@H](O)CN2CCc3c(ccc(OCc4cnco4)c3Cl)C2)n1
### Response ≤ 5.30

### Prompt Query pIC50 on PRMT5 (Homo sapiens) for O=C(NC[C@H](O)CN1CCc2c(ccc(OCc3cnco3)c2Cl)C1)c1ccnc(NC2CCCCC2)c1
### Response 5.30 to 6.30

### Prompt Observed pIC50 on PRMT5 (Homo sapiens) for CCCC(=O)N1CC(Nc2cc(C(=O)NC[C@H](O)CN3CCc4cc(OCc5ocnc5C)c(F)cc4C3)ccn2)C1 , please.
### Response 5.30 to 6.30

### Prompt Please tell me: pIC50 of CC(=O)N1CCC(Nc2cc(C(=O)NC[C@H](O)CN3CCc4cc(OCc5ccnn5C)ccc4C3)ncn2)CC1 , system PRMT5 (Homo sapiens)?
### Response ≤ 5.30

### Prompt Tell me reported pIC50 for CC(=O)N1CCC(Nc2cc(C(=O)NC[C@H](O)CN3CCc4cc(OCc5ocnc5C)ccc4C3)cc(N(C)C3CCC3)n2)CC1 , tested with PRMT5 (Homo sapiens).
### Response 5.30 to 6.30

### Prompt Identify the measured pIC50 of O=C(NC[C@H](O)CN1CCc2c(ccc(OCc3cnco3)c2Br)C1)c1cc(NC2CCCC2)ncn1 for PRMT5 (Homo sapiens).
### Response ≤ 5.30

### Prompt Give the reported pIC50 for Cc1c(OCc2cnco2)ccc2c1CCN(C[C@@H](O)CNC(=O)c1ccnc(NC3CCCC3)c1)C2 (system: PRMT5 (Homo sapiens)).
### Response ≤ 5.30

### Prompt Notebook: pull reported pIC50 for PRMT5 (Homo sapiens), entry O=C(NC[C@H](O)CN1CCc2c(ccc(OCc3cnco3)c2I)C1)c1ccnc(NC2CCC2)c1
### Response ≤ 5.30

### Prompt Item CC(=O)N1CCC(Nc2cc(C(=O)NC[C@H](O)CN3CCc4c(ccc(OCc5cnco5)c4Cl)C3)ncn2)CC1 with PRMT5 (Homo sapiens) - pIC50?
### Response 5.30 to 6.30

### Prompt Identify the measured pIC50 of CC(=O)N1CC2CC1CC2Nc1cc(C(=O)NC[C@H](O)CN2CCc3cc(OCc4ocnc4C)ccc3C2)ncn1 (stereo partly shown) for PRMT5 (Homo sapiens).
### Response ≤ 5.30

### Prompt Quick check: pIC50 on PRMT5 (Homo sapiens), item Cc1ncoc1COc1ccc2c(c1C)CCN(C[C@@H](O)CNC(=O)c1cc(NC3CCC3)nc(N3CCN(C(=O)C4CC4)CC3)c1)C2 ?
### Response 5.30 to 6.30

### Prompt Find the measured pIC50: item Cc1ncoc1COc1cc2c(cc1F)CN(C[C@@H](O)CNC(=O)c1ccnc(NC3CCC3)c1)CC2 , target or system PRMT5 (Homo sapiens).
### Response 5.30 to 6.30

### Prompt Lab request: please report pIC50 under test system PRMT5 (Homo sapiens) for Cc1ncoc1COc1ccc2c(c1Br)CCN(C[C@@H](O)CNC(=O)c1ccnc(NC3CCC3)c1)C2
### Response ≤ 5.30

### Prompt // lookup pIC50 | system=PRMT5 (Homo sapiens) | key= CC(=O)N1CCC(Nc2cc(C(=O)NC[C@H](O)CN3CCc4c(ccc(OCc5cn[nH]c5)c4C)C3)ncn2)CC1
### Response 5.30 to 6.30

### Prompt PRMT5 (Homo sapiens) / pIC50 / O=C(NC[C@H](O)CN1CCc2c(ccc(OCc3cnco3)c2Cl)C1)c1ccnc(NC2CCC(F)C2)c1 (stereo partly shown) : value?
### Response ≤ 5.30

----------
measuredOn: PRMT5 (Homo sapiens, UniProt O14744)
Construct: purchased Viva (custom protein)
Sequence (O14744 whole entry): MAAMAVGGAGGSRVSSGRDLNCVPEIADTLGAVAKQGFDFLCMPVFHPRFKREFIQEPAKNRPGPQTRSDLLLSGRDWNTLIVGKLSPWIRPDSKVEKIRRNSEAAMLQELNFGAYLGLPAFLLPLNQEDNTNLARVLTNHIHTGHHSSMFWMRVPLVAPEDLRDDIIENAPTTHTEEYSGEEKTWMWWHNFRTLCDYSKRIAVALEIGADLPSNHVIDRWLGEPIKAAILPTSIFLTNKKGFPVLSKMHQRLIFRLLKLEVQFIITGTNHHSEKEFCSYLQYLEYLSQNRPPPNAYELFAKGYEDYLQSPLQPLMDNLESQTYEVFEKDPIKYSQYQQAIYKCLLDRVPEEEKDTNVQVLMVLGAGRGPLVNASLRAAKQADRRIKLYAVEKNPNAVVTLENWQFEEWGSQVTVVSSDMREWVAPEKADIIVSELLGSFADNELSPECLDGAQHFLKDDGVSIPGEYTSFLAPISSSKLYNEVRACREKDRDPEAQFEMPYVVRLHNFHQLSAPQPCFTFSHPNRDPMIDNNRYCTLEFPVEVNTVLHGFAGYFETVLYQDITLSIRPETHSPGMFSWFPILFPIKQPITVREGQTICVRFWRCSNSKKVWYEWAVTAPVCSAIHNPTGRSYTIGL
Sequence (Q9BQA1 whole entry partner): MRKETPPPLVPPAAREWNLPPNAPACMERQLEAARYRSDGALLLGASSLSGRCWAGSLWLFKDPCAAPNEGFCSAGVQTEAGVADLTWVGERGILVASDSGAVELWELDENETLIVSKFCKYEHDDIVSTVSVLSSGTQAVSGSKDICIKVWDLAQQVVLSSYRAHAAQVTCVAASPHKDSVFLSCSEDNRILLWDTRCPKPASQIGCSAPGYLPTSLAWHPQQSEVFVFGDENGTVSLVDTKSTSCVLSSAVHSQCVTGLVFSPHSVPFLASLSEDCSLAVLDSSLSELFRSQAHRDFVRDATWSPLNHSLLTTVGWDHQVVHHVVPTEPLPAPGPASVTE
assayNotes: PRMT5 IC50 assay in the presence of SAM as cofactor
Assay type: biochemical
Please provide measured IC50 for the entries that follow.

### Prompt Observed IC50 on PRMT5 (Homo sapiens, UniProt O14744) for CCC(=O)N1CC(Nc2cc(C(=O)NC[C@H](O)CN3CCc4c(ccc(OCc5cnco5)c4Cl)C3)ccn2)C1 , please.
### Response 50 to 500 nM

### Prompt PRMT5 (Homo sapiens, UniProt O14744) / IC50 / CCC(=O)N1CCN(c2cc(C(=O)NC[C@H](O)CN3CCc4cc(OCc5ocnc5C)ccc4C3)cc(NC3CCC3)n2)CC1 : value?
### Response 50 to 500 nM

### Prompt Param readout= IC50; system= PRMT5 (Homo sapiens, UniProt O14744); entry= Cc1c(OCc2cnco2)ccc2c1CCN(C[C@@H](O)CNC(=O)c1cc(NC3CN(C(=O)C4CCC4)C3)ncn1)C2 ; returns value.
### Response 50 to 500 nM

### Prompt # value lookup — system PRMT5 (Homo sapiens, UniProt O14744), readout IC50, item COCCN(C)c1nc(NC2COC2)cc(C(=O)NC[C@H](O)CN2CCc3c(ccc(OCc4cnco4)c3Cl)C2)n1
### Response 50 to 500 nM

### Prompt Tell me reported IC50 for CCCC(=O)N1CCC(Nc2cc(C(=O)NC[C@H](O)CN3CCc4c(ccc(OCc5cnco5)c4Cl)C3)ccn2)CC1 , tested with PRMT5 (Homo sapiens, UniProt O14744).
### Response 50 to 500 nM

### Prompt Missing value: IC50, PRMT5 (Homo sapiens, UniProt O14744), entry Cc1ncoc1COc1ccc2c(c1)CCN(C[C@@H](O)CNC(=O)c1cc(NC3COC3)nc(N3CCN(C)CC3)n1)C2 . Fill in?
### Response 50 to 500 nM

### Prompt Recorded IC50 for O=C(NC[C@H](O)CN1CCc2c(ccc(OCc3cnco3)c2Cl)C1)c1ccnc(N[C@H]2CC[C@H](C(F)(F)F)CC2)c1 with PRMT5 (Homo sapiens, UniProt O14744), please?
### Response 500 to 5000 nM

### Prompt Requested read-out IC50, target or system PRMT5 (Homo sapiens, UniProt O14744), entry Cc1ncoc1COc1ccc2c(c1Br)CCN(C[C@@H](O)CNC(=O)c1cc(NC3CCCC3)ncn1)C2
### Response 500 to 5000 nM

### Prompt Query for PRMT5 (Homo sapiens, UniProt O14744): what IC50 does the record show for CCN(C)c1nc(NC2COC2)cc(C(=O)NC[C@H](O)CN2CCc3cc(OCc4cnco4)ccc3C2)n1 ?
### Response 50 to 500 nM

### Prompt Enter reported IC50 observed with PRMT5 (Homo sapiens, UniProt O14744) for CC(=O)N1CC(Nc2cc(C(=O)NC[C@H](O)CN3CCc4cc(OCc5ocnc5C)ccc4C3)nc(C(C)C)n2)C1
### Response 50 to 500 nM

### Prompt Identify the measured IC50 of O=C(NC[C@H](O)CN1CCc2c(ccc(OCc3cnco3)c2Br)C1)c1cc(NC2CCCCC2)ncn1 for PRMT5 (Homo sapiens, UniProt O14744).
### Response 500 to 5000 nM

### Prompt Query IC50 on PRMT5 (Homo sapiens, UniProt O14744) for CC(=O)N1CCC(Nc2cncc(C(=O)NC[C@H](O)CN3CCc4cc(OCc5cnco5)ccc4C3)c2)CC1
### Response 50 to 500 nM

### Prompt Hi! What's the reported IC50 for CC(=O)N1CCC(Nc2cc(C(=O)NC[C@H](O)CN3CCc4c(ccc(OCc5cnco5)c4Cl)C3)ncn2)CC1 on PRMT5 (Homo sapiens, UniProt O14744)?
### Response 50 to 500 nM

### Prompt Checklist item: IC50 tested on PRMT5 (Homo sapiens, UniProt O14744), entry CC(=O)N1CC(Nc2cc(C(=O)NC[C@H](O)CN3CCc4cc(OCc5ocnc5C)c(F)cc4C3)nc(N3CCCCC3)n2)C1 , value?
### Response 50 to 500 nM

### Prompt Form entry - test system: PRMT5 (Homo sapiens, UniProt O14744); read-out: IC50; compound: CCC(=O)N1CCN(c2nc(NC3COC3)cc(C(=O)NC[C@H](O)CN3CCc4c(ccc(OCc5cnco5)c4Cl)C3)n2)CC1
### Response 50 to 500 nM

### Prompt Item: Cc1c(OCc2cnco2)ccc2c1CCN(C[C@@H](O)CNC(=O)c1cc(NC3CCN(C(=O)CC(C)C)CC3)ncn1)C2 Test system: PRMT5 (Homo sapiens, UniProt O14744) Read-out: IC50 Value: ?
### Response 50 to 500 nM

### Prompt Record lookup: for PRMT5 (Homo sapiens, UniProt O14744), what IC50 belongs to CCCN(C)c1nc(NC2COC2)cc(C(=O)NC[C@H](O)CN2CCc3c(ccc(OCc4cnco4)c3Cl)C2)n1 ?
### Response 50 to 500 nM

### Prompt Entry Cc1ncoc1COc1ccc2c(n1)CCN(C[C@@H](O)CNC(=O)c1ccnc(NC3CCC3)c1)C2 , system PRMT5 (Homo sapiens, UniProt O14744): what IC50 was measured?
### Response 50 to 500 nM

### Prompt Param readout= IC50; system= PRMT5 (Homo sapiens, UniProt O14744); entry= CCN(C)c1cc(C(=O)NC[C@H](O)CN2CCc3cc(OCc4ocnc4C)ccc3C2)cc(NC2CCC2)n1 ; returns value.
### Response 500 to 5000 nM

### Prompt Request body: readout IC50, system PRMT5 (Homo sapiens, UniProt O14744), query O=C(NC[C@H](O)CN1CCc2c(ccc(OCc3cnco3)c2Cl)C1)c1ccnc(NC2CC3(C2)CC3(F)F)c1 (stereo partly drawn) . Return the value.
### Response 50 to 500 nM

### Prompt Form field - read-out: IC50; system: PRMT5 (Homo sapiens, UniProt O14744); submitted item: Cc1cc(OCc2cnco2)cc2c1CN(C[C@@H](O)CNC(=O)c1ccnc(NC3CCC3)c1)CC2
### Response 500 to 5000 nM

### Prompt Record lookup: for PRMT5 (Homo sapiens, UniProt O14744), what IC50 belongs to COCCN(C)c1nc(NC2COC2)cc(C(=O)NC[C@H](O)CN2CCc3c(ccc(OCc4ocnc4C)c3C)C2)n1 ?
### Response 50 to 500 nM

### Prompt Notebook entry, PRMT5 (Homo sapiens, UniProt O14744) assay: IC50 of Cc1ncoc1COc1ccc2c(c1Br)CCN(C[C@@H](O)CNC(=O)c1cc(NC3CCC3)ncn1)C2 = ?
### Response 500 to 5000 nM

### Prompt Which measured IC50 belongs to Cc1ncoc1COc1ccc2c(c1)CCN(C[C@@H](O)CNC(=O)c1cc(NC3CCCC3)ncn1)C2 , tested on PRMT5 (Homo sapiens, UniProt O14744)?
### Response 50 to 500 nM

### Prompt // fetch PRMT5 (Homo sapiens, UniProt O14744) IC50 for Cc1ncoc1COc1ccc2c(c1)CCN(C[C@@H](O)CNC(=O)c1cc(NC3CC4(CCC4)C3)nc(N3CCN(C(=O)C4CC4)CC3)c1)C2
### Response 50 to 500 nM

### Prompt Recall the recorded IC50 for O=C(NC[C@H](O)CN1CCc2c(ccc(OCc3cnco3)c2Cl)C1)c1ccnc(NC2CCC2)c1 with PRMT5 (Homo sapiens, UniProt O14744) and state it.
### Response 500 to 5000 nM

### Prompt API: value(readout= IC50, system= PRMT5 (Homo sapiens, UniProt O14744), query= COc1cc(C(=O)NC[C@H](O)CN2CCc3c(ccc(OCc4ocnc4C)c3C)C2)cc(NC2CCN(C(C)=O)CC2)n1 )
### Response 50 to 500 nM
